Tested on: OGD-injuried neurons (primary cortical neurons)
Experiment: Cell viability assay: LDH release by OGD-injured primary cortical neurons
Format: cell-based, mice
Settings: Mus musculus, Primary cortical neuron; drug concentration 10^−6 M/L; OGD 2 hours, LDH after 8 hours
// reported inhibition at 1 µM for each item listed
// note: answer is a bare numeric in %

## Task Fill in inhibition at 1 µM for record CC(=O)Oc1cc(NCc2cc(C(F)(F)F)ccc2O)ccc1C(=O)OC1CC2CCC1(C)C2(C)C (centres unmarked)
## Result 24.7

## Task Fill in inhibition at 1 µM for record COc1c(C(=O)OC2CC3CCC2(C)C3(C)C)ccc(NCc2cc(Cl)cc(Cl)c2O)c1Cl (centres unmarked)
## Result 35.4

More entries:
## Task Fill in inhibition at 1 µM for record CC(=O)Oc1cc(NCc2cc(C(F)(F)F)cc(Cl)c2O)ccc1C(=O)OC1CC2CCC1(C)C2(C)C (centres unmarked)
## Result 66.3

## Task Fill in inhibition at 1 µM for record CC1(C)C2CCC1(C)C(OC(=O)c1cc(NCc3cc(F)cc(Cl)c3O)ccc1O)C2 (centres unmarked)
## Result 50

## Task Fill in inhibition at 1 µM for record CC(Nc1ccc(C(=O)O)c(O)c1)c1cc(Br)ccc1O (centres unmarked)
## Result 28.6
